Source: paper PMC10144346

- System name: recombinant human PD-L1 protein (rhPD-L1) (Homo sapiens)
- Sequence (Q9NZQ7 19-239 limits assumed): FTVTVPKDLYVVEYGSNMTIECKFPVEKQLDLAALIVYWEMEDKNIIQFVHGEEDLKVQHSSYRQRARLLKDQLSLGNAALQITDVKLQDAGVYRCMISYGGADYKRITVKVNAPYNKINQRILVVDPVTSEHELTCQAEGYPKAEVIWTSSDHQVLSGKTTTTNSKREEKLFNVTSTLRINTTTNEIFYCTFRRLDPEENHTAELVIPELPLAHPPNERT
- Assay info: Microscale thermophoresis (MST) binding assay
- Test context: rhPD-L1, n = 3, 1:1 binding model
pKd: −log10 of the molar value.
The entries below are paired with their reported pKd.
Property name: pKd

Molecule | Test value
CCC1=NN(c2ccc(Cl)cc2Cl)C(=O)C1 [Compound 4] | 7.72
Oc1cc(-c2ccccc2F)nn1-c1ccc(Cl)cc1Cl [Compound 5] | 7.57

###

HRMS intensity of remaining 4-HNE values for the compounds below.
- Assay info: Aldehyde (4-HNE) reactivity by HRMS
- Test context: 180 min, 37 °C, [M–H]-
Property name: HRMS intensity of remaining 4-HNE

Compound | Property name | Test value
CCC1=NN(c2ccc(Cl)cc2Cl)C(=O)C1 [Compound 4] | HRMS intensity of remaining 4-HNE | 1.01 × 10^5
COc1ccccc1C1=NN(c2ccc(Cl)cc2Cl)C(=O)C1 [Compound 3] | HRMS intensity of remaining 4-HNE | 1.92 × 10^5
CC1=NN(c2ccccc2)C(=O)C1 [Compound 1, edaravone, reference compound] | HRMS intensity of remaining 4-HNE | 1.63 × 10^5
Oc1cc(-c2ccccc2F)nn1-c1ccc(Cl)cc1Cl [Compound 5] | HRMS intensity of remaining 4-HNE | 2.11 × 10^5

###

- System name: interaction between PD-L1 and PD-1 (Homo sapiens)
- Sequence (Q9NZQ7 19-239 limits assumed): as above
- Assay info: FRET reporter assay, SHP-2-CFP / PD-1-YFP in CHO-K1 cells activated by rhPD-L1
- Test context: CHO-K1 cells co-transfected PD1-SHP2, PD-L1 10 µM, n = 5, read-out: Bioactivity (IC50), block of PD-L1/PD-1 interaction in cells
Recorded IC50, one value per entry.

Chem smiles | IC50 (nM)
Oc1cc(-c2ccccc2F)nn1-c1ccc(Cl)cc1Cl | 74
CCC1=NN(c2ccc(Cl)cc2Cl)C(=O)C1 | 12

###

Listed molecules paired with reported IC50
- Tested on: CTLL-2 cells
- Assay info: CTLL-2 cell proliferation reactivation assay (CyQUANT)
- Format: cell-based
- Test context: CTLL-2 cells with rhPD-L1 chimera, 72 h, n = 3

Molecule | IC50 [µM]
COc1ccccc1C1=NN(c2ccc(Cl)cc2Cl)C(=O)C1 | 0.079
COc1nc(OCc2cccc(-c3ccccc3)c2C)ccc1CNCCNC(C)=O [BMS-202, reference compound] | 0.053
